Cited source: patent US20260137802A1

Quick reference for EC50 among some binders
Molecular target: T1, human CD117 on cells (SKMEL-3 cells, CD34+ HSC) (human, UniProt P10721 26-976)
T1 construct: whole, on cells; also called CD117 on cell surfaces; CD117+ cells
T1 sequence (P10721 26-976): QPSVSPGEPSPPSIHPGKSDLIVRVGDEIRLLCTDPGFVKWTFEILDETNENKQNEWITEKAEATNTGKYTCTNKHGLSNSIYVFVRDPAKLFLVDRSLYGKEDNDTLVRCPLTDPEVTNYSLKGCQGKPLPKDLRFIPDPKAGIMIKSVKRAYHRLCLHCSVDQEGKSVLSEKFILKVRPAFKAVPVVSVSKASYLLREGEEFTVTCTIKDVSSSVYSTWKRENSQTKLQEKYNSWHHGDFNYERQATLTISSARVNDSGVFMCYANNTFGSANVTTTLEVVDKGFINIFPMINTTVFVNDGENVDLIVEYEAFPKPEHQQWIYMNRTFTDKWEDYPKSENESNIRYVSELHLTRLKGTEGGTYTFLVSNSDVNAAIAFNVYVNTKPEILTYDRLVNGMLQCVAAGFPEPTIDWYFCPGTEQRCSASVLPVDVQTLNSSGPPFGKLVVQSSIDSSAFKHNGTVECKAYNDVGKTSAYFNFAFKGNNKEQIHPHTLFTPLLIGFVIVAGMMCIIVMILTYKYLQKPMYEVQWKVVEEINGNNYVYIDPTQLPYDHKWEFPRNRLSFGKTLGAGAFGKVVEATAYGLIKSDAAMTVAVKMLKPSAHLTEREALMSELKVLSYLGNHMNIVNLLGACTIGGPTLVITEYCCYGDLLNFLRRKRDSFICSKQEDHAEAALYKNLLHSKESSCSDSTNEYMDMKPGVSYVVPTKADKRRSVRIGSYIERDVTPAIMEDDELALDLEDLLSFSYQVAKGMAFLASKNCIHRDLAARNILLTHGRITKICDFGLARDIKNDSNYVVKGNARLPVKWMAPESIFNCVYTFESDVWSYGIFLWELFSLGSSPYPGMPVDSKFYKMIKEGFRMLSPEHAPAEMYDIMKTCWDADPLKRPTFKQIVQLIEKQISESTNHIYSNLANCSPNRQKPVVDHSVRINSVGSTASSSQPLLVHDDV
Assay: flow cytometry, skMEL-3 cells, bivalent Fc
QUANTITY KIND: EC50 (nM)

{"BINDER": "P-0072 (Fc fusion, also called P72; bivalent form of P38; not shown: Fc fragment) EVQLVESGGGLVQAGGSLRLSCAASGRTSGSYVMGWFRQAPGKEREFVAAISWSAGMTYYADSVKGRFTISRDNAKNTVYLQMNSLKPEDTAVYYCAADQRGVPAYYSDYALYDYWGQGTQVTVSS", "QUANTITY KIND": "EC50", "READOUT UNITS": "nM", "RESULT QUALIFIER": "=", "NUMERIC READOUT": 1}
{"BINDER": "P-0053 (Fc fusion, also called P53; bivalent form of P10; not shown: Fc fragment) QVQLVESGGGLVQAGGSLRLSCVASGRTFSSYAMGWFRQGPGKEREFAAAILSNGLTTYYADSVKGRFTISRDNAKDTVYLQMNSLKPEDTANYYCAAAFTPEFRDGGIWDDASVDYWGQGTQVTVSS", "QUANTITY KIND": "EC50", "READOUT UNITS": "nM", "RESULT QUALIFIER": "=", "NUMERIC READOUT": 1}
{"BINDER": "P-0060 (Fc fusion, also called P60; bivalent form of P27; not shown: Fc fragment) EVQLVESGGGLVRAGGSLRLSCAASGRTTFSTYWLGWFRQAPGKNREFVAAISWSAGMAYYQDSKGRFTISRDNTKNTAYLQMNSLQPEDTAVYYCAAGRFHPIRVDTALYWAQGTQVTVSS", "QUANTITY KIND": "EC50", "READOUT UNITS": "nM", "RESULT QUALIFIER": "=", "NUMERIC READOUT": 2}
{"BINDER": "P-0056 (Fc fusion, the alignment instead labels 'P35/P57' and 'P32/P56'; also called P56; not shown: Fc fragment) QVQLVESGGGLVQAGGSLRLSCAASGGTFSIYPVGWFRQAPGKQREFVAAIGWSASGTYYGDSVEGRFTVSRDNARSTVYLRMSSLKPDDTAVYYCAAASGSNWRLGAIDEYDSWGQGTQVTVSS", "QUANTITY KIND": "EC50", "READOUT UNITS": "nM", "RESULT QUALIFIER": "=", "NUMERIC READOUT": 3}
{"BINDER": "P-0054 (Fc fusion, also called P54; bivalent form of P29; not shown: Fc fragment) QVHLVESGGGLVQAGGSLGLSCAASGHTFSNYAMGWFRQAPGKEREFVAAISWSGGSTLYADSVKGRFTISRDNGENTVYLQMNSLKPEDTAVYYCALDSTGVYGTGYVSSRKGRYEYWGQGTLVTVSS", "QUANTITY KIND": "EC50", "READOUT UNITS": "nM", "RESULT QUALIFIER": ">", "NUMERIC READOUT": 50}
{"BINDER": "P-0059 (Fc fusion, also called P59; bivalent form of P12; not shown: Fc fragment) QVQLVESGGGLVQAGGSLRLSCTASGDTFSSYSMGWFRQGPGKEREFVGGIRWSGGTTYYADSVKGRFTISRDNAKNTVYLQMNSLKREDTAVYYCAAVRRRWLIWQEEEYDYWGQGTLVTVSS", "QUANTITY KIND": "EC50", "READOUT UNITS": "nM", "RESULT QUALIFIER": "=", "NUMERIC READOUT": 50}
{"BINDER": "P-0058 (Fc fusion, also called P58; bivalent form of P37; not shown: Fc fragment) QVQLVESGGGLVQAGDSLRLSCAVSGRTLSNYFMAWLRQAPGKEREFVAAIHWSLGSTYYQDPVKGRFTISRDKAKNTVYLQMNTLKPEDTATYICAAGQHLSGLGGSAWSIEGDYWGQGTQVTVSS", "QUANTITY KIND": "EC50", "READOUT UNITS": "nM", "RESULT QUALIFIER": "=", "NUMERIC READOUT": 3}
{"BINDER": "P-0055 (Fc fusion, also called P55; bivalent form of P31; not shown: Fc fragment) EVQLVESGGGLVRAGGSLRLSCAASGRTFTYDARAWFRQAPGKEREFVAAISWSGGSTYYPNSMKGRFTISRDNAKNTVYLQMNSLKPEDTAVYYCAADESFPAYYSDYALYRYWGQGTLVTVSS", "QUANTITY KIND": "EC50", "READOUT UNITS": "nM", "RESULT QUALIFIER": "=", "NUMERIC READOUT": 1}
